protocol text: chemical genetic growth profiling, strain panel (AID 1159580);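 further: tested at 20 µM; growth read once vehicle control cultures reached saturation at 30 °C; 1 = growth at the plate median or of vehicle wells; lower values mean less growth of the strain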
experimental conditions: S. cerevisiae deletion strains, growth OD, locus YML016C, strain PPZ1, stronger effect = lower value
Screen size: about 5,500 compounds; about 2,000 (36%) were called active. Roughly 18% stayed inconclusive and do not appear here. The list shows a part of the results.
Here the recorded normalized growth is given for each entry.

molecule | normalized growth
Oc1c(Cl)cc(Cl)c2cccnc12 | 0.0467
COc1cc2c(c(OC)c1OC)-c1ccc(OC)c(=O)cc1[C@@H](NC(C)=O)CC2 | 1.03
O=C1O[C@H](C(O)CO)C(O)=C1O (some centres undefined) | 0.958
Oc1c(Br)cc(Br)c2cccnc12 | 0.0489
Nc1nc2ncc(C(=O)O)nc2c(=O)[nH]1 | 1.01
Oc1ccc(Cl)c2cccnc12 | 0.0462
CSCCC(NC=O)C(=O)NC(C)C(=O)O (centres undefined) | 0.993
CC(=O)O[C@H]1C[C@@H](OC(C)=O)C(C)(C)C2C[C@@H](OC(C)=O)[C@@]3(C)C4=CC(=O)O[C@@H](c5ccoc5)[C@]4(C)CCC3[C@]21C (some centres undefined) | 1
O=C(CCCCCCCCCCCCC1CCCC1)Nc1ccc(S(=O)(=O)c2ccc(NC(=O)CCCCCCCCCCCCC3CCCC3)cc2)cc1 | 1.03

====

protocol text: chemical genetic growth profiling, strain panel (AID 1159580)
experimental conditions: S. cerevisiae deletion strains, growth OD, locus YIL066C, strain RNR3, stronger effect = lower value
The whole screen tested about 5,500 compounds, of which about 2,000 (36%) were called active. Not shown: some 18% with an inconclusive outcome. This is one part of the list.
Here, each record is paired with measured normalized growth data.

compound | normalized growth
COc1cc2c(c(OC)c1OC)-c1ccc(OC)c(=O)cc1[C@@H](NC(C)=O)CC2 | 1.02
COC(C)(C)CCC[C@H](C)C/C=C/C(C)=C/C(=O)OC(C)C | 1.01
NC(=NCCC[C@H](N)C(=O)O)NC(CCC(=O)O)C(=O)O (stereo partly drawn) | 1.01
OC[C@@H]1CCCN2CCCC[C@H]12 | 1.01
Nc1ccc(S(=O)(=O)Nc2ccc(Cl)nn2)cc1 | 0.992
CC(Cc1ccc(O)c(O)c1)C(C)Cc1ccc(O)c(O)c1 (stereo not drawn) | 0.61
CC(C)(C)NC[C@@H](O)COc1nsnc1N1CCOCC1 | 0.985
Nc1ncnc2c1ncn2C1C[C@H](O)[C@@H](CO)O1 (stereo partly drawn) | 0.986
O=C(OC1Cc2c(O)cc(O)cc2OC1c1cc(O)c(O)c(O)c1-c1c(C2Oc3cc(O)cc(O)c3CC2OC(=O)c2cc(O)c(O)c(O)c2)cc(O)c(O)c1O)c1cc(O)c(O)c(O)c1 (stereo not drawn) | 1.03
N[C@@H](Cc1ccc(O)c(O)c1)C(=O)O | 0.928
O=C(O)CCC(=O)C(=O)O | 1.01
Cc1occc(=O)c1/C=C/O | 1
O=c1[nH]c(=O)n(C2C[C@@H](O)[C@@H](CO)O2)cc1F (stereo partly drawn) | 0.988
O=C(O[C@@H]1Cc2c(O)cc(O)cc2O[C@@H]1c1cc(O)c(O)c(O)c1-c1c([C@H]2Oc3cc(O)cc(O)c3C[C@H]2O)cc(O)c(O)c1O)c1cc(O)c(O)c(O)c1 | 0.0703
O=C1O[C@H](C(O)CO)C(O)=C1O (stereo partly drawn) | 0.987
O[N+]1=CC=CCC1=S.On1ccccc1=S.[Zn] | 0.0511
CCCc1occc(=O)c1/C=C/O | 0.97
Nc1ncnc2c1ncn2C1O[C@H](COP(=O)(O)O)[C@@H](O)[C@H]1O (stereo partly drawn) | 1.03
CC(=O)Nc1ccc(S(=O)(=O)Nc2ccc([N+](=O)[O-])cc2)cc1 | 1.02
Nc1ncnc2c1ncn2[C@@H]1O[C@H](CO)[C@@H](O)[C@H]1O | 0.978
CCOP(=S)(OCC)SCn1c(=O)oc2cc(Cl)ccc21 | 1.01
CCCC(C)C1(CC)C(=O)NC(=O)NC1=O (stereo not drawn) | 1.01
CCCC(C)C1(CC)C(=O)N=C(S)NC1=O (stereo not drawn) | 1.03

====

protocol text: chemical genetic growth profiling, strain panel (AID 1159580);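 further: tested at 20 µM; growth read once vehicle control cultures reached saturation at 30 °C; 1 = growth at the plate median or of vehicle wells; lower values mean less growth of the strain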
experimental conditions: S. cerevisiae deletion strains, growth OD, locus YAL030W, strain snc1, stronger effect = lower value
Among all 5,500 compounds or so, about 2,000 (36%) were called active. Another 18% or so got no clear call; they are omitted. This is one part of the list.
Under this convention, Fulfilled denotes normalized growth strictly below 1 and Not fulfilled denotes normalized growth at or above 1.

compound | qualitative label
OC[C@@H]1CCCN2CCCC[C@H]12 | Not fulfilled
COC(C)(C)CCC[C@H](C)C/C=C/C(C)=C/C(=O)OC(C)C | Not fulfilled
C=C[C@@H](C1=CC(=O)C(OC)=C(OC)C1=O)c1ccccc1 | Fulfilled
C=CC(C1=CC(=O)C(OC)=CC1=O)c1ccc(OC)cc1 (stereo not drawn) | Fulfilled
CCOC(=O)c1oc2c(OC)c(O)cc(O)c2c(=O)c1-c1cc(OC)c(OC)c(OC)c1 | Fulfilled

====

protocol text: chemical genetic growth profiling, strain panel (AID 1159580);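 further: tested at 20 µM; growth read once vehicle control cultures reached saturation at 30 °C; 1 = growth at the plate median or of vehicle wells; lower values mean less growth of the strain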
experimental conditions: S. cerevisiae deletion strains, growth OD, locus YDL132W, strain cdc53, stronger effect = lower value
The campaign covered roughly 5,500 compounds. About 2,000 (36%) were called active. Roughly 18% stayed inconclusive and do not appear here. This is one part of the list.
Quick reference: normalized growth of the listed items.

compound | normalized growth
CCOc1ccc(/C=C(\C)[N+](=O)[O-])cc1OC | 0.991
S=C(N/N=C\c1ccc(Cl)cc1)N/N=C\c1ccc(Cl)cc1 | 0.957
O=C(NC(=O)c1c(F)cccc1Cl)OCc1ccc(Cl)cc1Cl | 0.984
NC(=Nc1ccc(F)cc1)SCc1c(Cl)cccc1Cl | 0.986
CCCc1c(C(=O)Sc2ccccn2)cnn1-c1ccc(Cl)cc1 | 0.95
N#CC(C#N)=C/C=C(/Sc1nc2ccccc2s1)c1ccc(Br)cc1 | 0.299
O=C(c1ccccc1)c1cc(Cl)ccc1NC(=S)Nc1ccc(F)cc1 | 0.992
CC(C)c1ccc(NCC(O)CSc2ccccc2)cc1 (stereo not drawn) | 0.948
Fc1cccc(F)c1NC(=S)Nc1cc(C(F)(F)F)cc(C(F)(F)F)c1 | 0.979
FC(F)(F)c1cccc(NC(=S)Nc2ccccc2)c1 | 0.966
O=[N+]([O-])c1cc(Br)cnc1Sc1nnc(SCC2CC2)s1 | 0.936
O=C(NCCSCc1cccc(C(F)(F)F)c1)Nc1cccc(C(F)(F)F)c1 | 0.99
CCOC(=O)/C(=N/Nc1c(Cl)cccc1Cl)c1csc(N)n1 | 0.971
O=C(NCCSCc1cccc(C(F)(F)F)c1)c1ccc(Cl)cc1 | 0.96
Cn1c(CSCCOc2ccccc2)nnc1SCc1ccc(Cl)cc1Cl | 0.968
CC(C)c1ccc(N2C=Nc3ccc(C(C)C)cc3C2)cc1 | 0.995
Cc1ccc(S(=O)(=O)CCSC2=CC(=O)CC(C)(C)S2)cc1 | 1
Cc1cc(Cl)ccc1NC(=S)NNC(=S)Nc1ccc(F)cc1 | 0.966
Cc1c(C)c(C)c(CSC(N)=Nc2ccc(F)cc2)c(C)c1C | 1
O=[N+]([O-])c1ccccc1CS(=O)(=O)c1nc2ccccc2s1 | 0.828
O=C(Nc1ccc(N2CCOCC2)cc1)c1ccc(-n2cccn2)cc1 | 0.973
Fc1cccc(Cl)c1CSc1nncn1-c1ccc(OCc2ccccc2)cc1 | 0.994
CC(C)c1ccc(NC(=S)NC(=O)c2ccccc2)cc1 | 0.953
C=CCOc1ccc(/C=C/[N+](=O)[O-])cc1 | 0.0933
C/C(=C\c1ccc2c(c1)OCO2)[N+](=O)[O-] | 0.121
CCCc1c(C(=O)NNc2cccc(Cl)c2)cnn1-c1ccccc1 | 0.993
CC(=O)c1sc(SCCS(=O)(=O)c2ccc(C)cc2)c2c1CC(C)(C)CC2=O | 0.978
O=C1CSC(c2cccnc2)N1c1ccc(Cl)cc1Cl (stereo not drawn) | 0.993
O=c1c(Cl)c(-n2cccn2)cnn1-c1ccc(Cl)cc1Cl | 0.95
O=[N+]([O-])/C=C/c1ccsc1 | 0.0899
N#CCC(=O)NNC(=S)Nc1ccc(Cl)c(Cl)c1 | 0.974
CCOC(=O)C1=C(N)OC2=C(C(=O)CC(C)(C)C2)C1c1ccc(Cl)cc1Cl (stereo not drawn) | 0.975
O=C(c1ccc2ccccc2c1)N1CCN(c2ccnc3cc(Cl)ccc23)CC1 | 0.987

====

Documented normalized growth across a set of compounds
protocol text: chemical genetic growth profiling, strain panel (AID 1159580);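 further: tested at 20 µM; growth read once vehicle control cultures reached saturation at 30 °C; 1 = growth at the plate median or of vehicle wells; lower values mean less growth of the strain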
experimental conditions: S. cerevisiae deletion strains, growth OD, locus YGL227W, strain vid30, stronger effect = lower value
The campaign covered roughly 5,500 compounds. About 2,000 (36%) were called active. Not shown: some 18% with an inconclusive outcome. This is one part of the list.
measured endpoint: normalized growth

compound | measured endpoint | measurement
COc1cc(OC)c2c(=O)c(-c3ccccc3)c(C)oc2c1OC | normalized growth | 0.961
CCN(CC)CCNC(=O)c1cc(S(C)(=O)=O)ccc1OC | normalized growth | 0.97
C1CCN2CC3CC(CN4CCCCC34)C2C1 (stereo unspecified) | normalized growth | 1.02
CCOC(=O)c1oc2c(OC)c(O)cc(O)c2c(=O)c1-c1cc(OC)c(OC)c(OC)c1 | normalized growth | 0.959
Cc1c(Nc2ncccc2C(=O)O)cccc1C(F)(F)F | normalized growth | 0.978
C1CCN2C[C@@H]3C[C@H](CN4CCCC[C@@H]34)[C@H]2C1 | normalized growth | 1.01
